tested on: Dd2; test: qHTS profiling for inhibitors of Plasmodium falciparum proliferation (AID 504749); note: nearly all actives have a fitted effect of over 60% in size; details: P. falciparum in erythrocytes, SYBR Green DNA, 72 h; series mostly up to 28.7 µM
Results filed as inconclusive are left out. Active and inactive are the calls of the source. Calls come from the whole dose curve; as a rule, active = well fitted inhibition curve with a large enough effect; inconclusive = small, poorly fitted or top-dose-only effect; inactive = flat fitted curve, though single readings scatter.
Thanks in advance; please answer with one of these: active, inactive

Use the examples below as a reference point.
[[record]]
input_smiles = "CO[C@H]1/C=C/O[C@@]2(C)Oc3c(C)c(O)c4c(O)c(c(/C=N\\N5CCN(C6CCCC6)CC5)c(O)c4c3C2=O)NC(=O)/C(C)=C\\C=C\\[C@H](C)[C@H](O)[C@@H](C)[C@@H](O)[C@@H](C)[C@H](OC(C)=O)[C@@H]1C"
class_label = "active"

[[record]]
input_smiles = "Oc1ccc(/C=C\\c2cc(O)cc(O)c2)cc1"
class_label = "inactive"


Lookup: Hi, do you know how COc1ccc(CCNC[C@@H](O)c2ccc(O)cc2)cc1OC came out in this test?
Found: inactive

###

molecular target: Cytochrome P450 1A2 (Homo sapiens) (UniProt P05177); test: p450-cyp1a2 (AID 410); conditions: recombinant CYP1A2, luciferin-ME demethylation, luminescence; series mostly up to 57 µM
Sequence (P05177 whole entry, looked up): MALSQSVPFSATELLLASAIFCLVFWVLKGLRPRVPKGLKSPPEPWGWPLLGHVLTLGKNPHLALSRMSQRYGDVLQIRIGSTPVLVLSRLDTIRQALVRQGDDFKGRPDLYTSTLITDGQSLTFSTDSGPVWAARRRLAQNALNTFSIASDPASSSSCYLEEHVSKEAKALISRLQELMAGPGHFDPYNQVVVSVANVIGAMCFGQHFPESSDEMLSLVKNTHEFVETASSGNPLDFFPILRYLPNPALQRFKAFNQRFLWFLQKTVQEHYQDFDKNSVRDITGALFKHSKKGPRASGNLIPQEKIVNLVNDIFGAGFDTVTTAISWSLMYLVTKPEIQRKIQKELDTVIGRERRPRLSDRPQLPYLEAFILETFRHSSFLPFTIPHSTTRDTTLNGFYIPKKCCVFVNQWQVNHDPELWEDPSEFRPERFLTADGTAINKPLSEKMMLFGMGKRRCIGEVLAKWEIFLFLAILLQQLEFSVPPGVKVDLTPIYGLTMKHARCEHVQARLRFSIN
Inconclusive results are not listed. Active and inactive are the calls of the source. Calls come from the whole dose curve.
Pick one and only one: true (1) = active, false (0) = inactive

Study these solved cases before continuing.
[[record]]
input_smiles = "CN(C)c1ncc2nc(-c3ccc(F)cc3)c(=O)n(C)c2n1"
class_label = "true (1)"

[[record]]
input_smiles = "O=c1c(-c2ccccc2)nc2cnc(Oc3ccccc3)nc2n1Cc1cccs1"
class_label = "true (1)"

[[record]]
input_smiles = "Cc1cnc(CNc2ncncc2-c2ccccc2C(F)(F)F)cn1"
class_label = "false (0)"

[[record]]
input_smiles = "CC(=O)NCCNc1cc(-c2ccccc2C)ncn1"
class_label = "true (1)"

[[record]]
input_smiles = "Cc1nc2cnc(Nc3ccccc3)nc2n(C)c1=O"
class_label = "true (1)"

[[record]]
input_smiles = "Cc1cnc(CNc2ncnc3ccc(-c4ccoc4)cc23)cn1"
class_label = "true (1)"


Lookup: Fill in: this test's call for CN(C)c1ccc(-c2cc(Nc3ccc(F)cc3)ncn2)cc1 is ___
Found: true (1)

Lookup: Test call, this compound: CN(C)c1ncc2ncc(=O)n(Cc3ccc(F)cc3)c2n1
Found: true (1)

###

Assay: qHTS drug screen for cell cycle checkpoint inhibitors in PARPi-resistant BRCA-mutant ovarian cancer cell lines. (AID 1963452)
Settings: PEO1/OlaR viability, CellTiter-Glo luminescence, 96 h; measured here: PEO4 Z-AUC; stronger effect = lower value
From the text: Women's Malignancies Branch, Center for Cancer Research (CCR), National Cancer Institute (NCI), National Institutes of Health (NIH), Bethesda, MD Poly (ADP-ribose) polymerase inhibitors (PARPis) have changed the treatment paradigm in breast cancer gene (BRCA) - mutant high-grade serous ovarian carcinoma (HGSC). […] 6; Detection; Luminescence, PHERAstar (BMG Labtech) plate reader. […] 6. Luminescence readings were taken using PHERAstar (BMG Labtech). […]
endpoint: Z-AUC
Field format: numeric only.

[[record]]
compound = "Cc1c(-c2ccc(-c3ccccc3F)cc2)nc2ccc(F)cc2c1C(=O)O"
endpoint = "Z-AUC"
result = -1.34

[[record]]
compound = "COc1cc2c3c(n(CCCNCCO)c(=O)c2cc1OC)-c1cc2c(cc1C3=O)OCO2"
endpoint = "Z-AUC"
result = -1.56

[[record]]
compound = "C[C@@H](O)[C@@H](C)Oc1nc(Nc2ccc(S(=N)(=O)C3CC3)cc2)ncc1C(F)(F)F (stereo partly specified)"
endpoint = "Z-AUC"
result = -0.563

[[record]]
compound = "COc1cc2c(NC3CCN(C4CCCCC4)CC3)nc(N3CCCN(C(C)C)CC3)nc2cc1OCCCN1CCCCC1"
endpoint = "Z-AUC"
result = 0.674


Lookup: Data request, read-out Z-AUC, for COc1cc(C(=O)NC(N)=Nc2ccc(C)c(NC(=O)c3ccc(-c4ccccc4)cc3)c2)cc(OC)c1OC
Found: 0.136

Lookup: Given the compound CN1CCN(c2ccc(Nc3ncc4cc(C#N)c(=O)n(C5CCCC5)c4n3)cc2)CC1 , what is its reported Z-AUC?
Found: 0.542

Lookup: Which value of Z-AUC has been reported for C[C@H]1[C@H](C)CC[C@]2(C(=O)O)CC[C@]3(C)C(=CC[C@@H]4[C@@]5(C)CC[C@H](O)C(C)(C)[C@@H]5CC[C@]43C)[C@H]12 in the records?
Found: 0.501

Lookup: Query: Z-AUC; subject: C=C1CCC2[C@](C)(CO)C(O)CC[C@]2(C)C1C/C=C1/C(=O)OCC1O (stereo partly specified)
Found: -0.312

Lookup: If you can, please state the reported Z-AUC value of Cc1c(Cl)cccc1S(=O)(=O)Nc1nc(CCN2CCOCC2=O)cs1 .
Found: 0.46

Lookup: Dear colleague, I am looking for the recorded Z-AUC of the following compound: Cc1cc(Nc2cc(N)ncn2)c(=O)n2c1C(=O)NC21CCCCC1
Found: 0.801
